TARGET: human secreted PLA2 (Homo sapiens, UniProt P14555)
Sequence (P14555 21-144): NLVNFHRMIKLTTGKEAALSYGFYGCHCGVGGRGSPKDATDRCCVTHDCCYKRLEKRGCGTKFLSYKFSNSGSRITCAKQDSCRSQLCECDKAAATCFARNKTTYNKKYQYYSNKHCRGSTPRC
PROTOCOL: Chromogenic assay, inhibition of recombinant human secreted phospholipase A2
CONDITION SUMMARY: recombinant human sPLA2, diheptanoyl thio-PC substrate, pH 7.5, 40° C., 30 minutes, 405 nm; ± mean deviation (3-4 tests)
READOUT LABEL: IC50 (nM)

COMPOUND STRING	TARGET	RESULT UNITS	RESULT NUMBER
CCc1c(Cc2ccccc2)c2ccc(OCCCC(=O)O)cc2n1CC(N)=O	human secreted PLA2 (Homo sapiens, UniProt P14555)	nM	33

A = Cc1c(Cc2ccccc2)c2cccc(OCC(=O)O)c2n1CC(=O)NN
B = Cc1c(Cc2ccccc2)c2cccc(OCC(=O)O)c2n1CC(N)=O
C = CCc1c(Cc2ccccc2)c2ccc(OCCCP(=O)(O)O)cc2n1CC(N)=O
Query :: Ascending by IC50, please. List labels; respect the requested ordering.
Result :: B, C, A
(B: 13 nM, C: 35 nM, A: 200 nM)

###

TARGET: Human Secreted Phospholipase A2 (Homo sapiens, UniProt P14555)
Sequence (P14555 21-144): as above
PROTOCOL: Human secreted phospholipase A2 inhibition tests on guinea pig lung tissue (pleural strip contraction)
Assay type: tissue-based
CONDITION SUMMARY: guinea pig lung pleural strips, sPLA2-induced contraction, 37° C., compound added 30 min. prior; Schild slope 1, apparent KB = dissociation constant of the inhibitor; read-out: Tissue test secreted PLA2, Apparent KB
READOUT LABEL: Kb (nM)

I = Cc1c(Cc2ccccc2)c2cccc(OCC(=O)O)c2n1CC(=O)NN [Example 4]
II = CCc1c(Cc2ccccc2)c2ccc(OCCCP(=O)(O)O)cc2n1CC(N)=O [Example 3]
Query :: Which one would you say has the larger Kb value: I , or II ? API: response body contains the label of the selected item.
Result :: I

a = CCc1c(Cc2ccccc2)c2ccc(OCCCC(=O)O)cc2n1CC(N)=O [Example 2]
b = Cc1c(Cc2ccccc2)c2cccc(OCC(=O)O)c2n1CC(N)=O [Example 1]
Query :: Compare a and b and name the one whose reported Kb is smaller. API: response body contains the label of the selected item.
Result :: b
